- Study target: LRRK2 (Homo sapiens (Human))
- Sequence (Q5S007 whole entry): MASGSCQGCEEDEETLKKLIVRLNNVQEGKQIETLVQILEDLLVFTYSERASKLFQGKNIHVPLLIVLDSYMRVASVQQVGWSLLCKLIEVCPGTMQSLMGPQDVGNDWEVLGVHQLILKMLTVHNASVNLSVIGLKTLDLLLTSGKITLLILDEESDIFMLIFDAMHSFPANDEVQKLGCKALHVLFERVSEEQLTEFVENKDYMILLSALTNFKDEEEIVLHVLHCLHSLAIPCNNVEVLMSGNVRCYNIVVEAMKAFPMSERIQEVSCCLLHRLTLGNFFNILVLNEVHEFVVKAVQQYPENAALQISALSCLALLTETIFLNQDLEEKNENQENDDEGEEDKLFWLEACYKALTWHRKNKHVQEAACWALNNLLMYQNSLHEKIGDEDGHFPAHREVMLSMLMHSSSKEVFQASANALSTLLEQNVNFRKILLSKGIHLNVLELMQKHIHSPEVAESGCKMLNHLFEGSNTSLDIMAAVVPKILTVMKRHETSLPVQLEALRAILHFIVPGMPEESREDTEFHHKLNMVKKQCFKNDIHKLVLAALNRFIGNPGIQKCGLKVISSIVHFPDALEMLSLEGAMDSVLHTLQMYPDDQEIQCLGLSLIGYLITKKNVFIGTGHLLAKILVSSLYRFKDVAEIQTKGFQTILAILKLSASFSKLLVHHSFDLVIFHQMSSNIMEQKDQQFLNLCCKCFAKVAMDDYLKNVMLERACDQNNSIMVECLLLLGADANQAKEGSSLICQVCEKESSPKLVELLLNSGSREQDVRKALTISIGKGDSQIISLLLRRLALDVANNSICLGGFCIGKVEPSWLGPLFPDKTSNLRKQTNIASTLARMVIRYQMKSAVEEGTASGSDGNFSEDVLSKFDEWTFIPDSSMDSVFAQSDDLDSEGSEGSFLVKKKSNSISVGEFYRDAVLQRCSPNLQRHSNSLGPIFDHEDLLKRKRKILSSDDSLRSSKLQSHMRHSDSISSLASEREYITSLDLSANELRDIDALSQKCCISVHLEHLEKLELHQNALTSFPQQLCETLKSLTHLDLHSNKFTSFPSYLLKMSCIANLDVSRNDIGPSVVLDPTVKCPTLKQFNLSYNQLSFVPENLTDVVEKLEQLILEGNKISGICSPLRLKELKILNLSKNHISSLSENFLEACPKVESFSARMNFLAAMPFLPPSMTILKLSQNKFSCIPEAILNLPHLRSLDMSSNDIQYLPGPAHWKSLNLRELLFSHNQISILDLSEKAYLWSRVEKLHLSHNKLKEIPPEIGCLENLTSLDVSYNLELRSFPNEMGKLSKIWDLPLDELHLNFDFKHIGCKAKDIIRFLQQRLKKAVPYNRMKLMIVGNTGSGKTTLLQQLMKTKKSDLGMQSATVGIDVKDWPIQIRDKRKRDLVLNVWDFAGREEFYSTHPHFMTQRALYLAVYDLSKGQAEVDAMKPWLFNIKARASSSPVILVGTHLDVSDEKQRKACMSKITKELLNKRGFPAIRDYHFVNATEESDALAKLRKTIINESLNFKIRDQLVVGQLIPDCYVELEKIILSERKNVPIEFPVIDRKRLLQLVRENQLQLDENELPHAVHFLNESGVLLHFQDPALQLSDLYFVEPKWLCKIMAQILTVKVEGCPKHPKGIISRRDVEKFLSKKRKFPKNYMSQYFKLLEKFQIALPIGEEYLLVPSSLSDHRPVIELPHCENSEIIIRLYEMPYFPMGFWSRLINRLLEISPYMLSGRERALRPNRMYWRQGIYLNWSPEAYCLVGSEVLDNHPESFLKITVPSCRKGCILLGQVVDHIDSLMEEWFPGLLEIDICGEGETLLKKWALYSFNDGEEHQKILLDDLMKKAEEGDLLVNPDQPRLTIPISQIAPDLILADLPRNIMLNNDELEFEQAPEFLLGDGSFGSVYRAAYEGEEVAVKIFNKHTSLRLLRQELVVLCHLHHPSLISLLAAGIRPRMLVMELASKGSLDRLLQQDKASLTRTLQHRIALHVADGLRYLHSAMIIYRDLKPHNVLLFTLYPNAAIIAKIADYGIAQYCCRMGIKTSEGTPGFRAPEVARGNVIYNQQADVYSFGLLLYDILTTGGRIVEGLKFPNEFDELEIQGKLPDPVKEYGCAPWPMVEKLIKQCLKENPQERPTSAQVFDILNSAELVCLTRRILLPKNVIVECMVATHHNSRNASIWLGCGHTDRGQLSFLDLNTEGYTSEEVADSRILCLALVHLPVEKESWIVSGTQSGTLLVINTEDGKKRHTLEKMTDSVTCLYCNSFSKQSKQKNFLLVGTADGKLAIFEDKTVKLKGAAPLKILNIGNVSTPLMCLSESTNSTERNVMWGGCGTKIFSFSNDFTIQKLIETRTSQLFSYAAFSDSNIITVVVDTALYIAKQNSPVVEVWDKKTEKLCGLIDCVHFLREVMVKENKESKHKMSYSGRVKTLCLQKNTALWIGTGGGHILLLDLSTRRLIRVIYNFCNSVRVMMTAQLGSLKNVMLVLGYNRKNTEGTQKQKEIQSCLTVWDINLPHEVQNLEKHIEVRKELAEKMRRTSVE
- Test details: KINATIV assay
- Assay type: cell-based
- Condition summary: 1 μM, 90 minutes, BCWM.1 cells
Property: % change of MS signal compared to control sample (%)
All answers are understood in %, so give the number only.

{"Molecule": "C=CC(=O)N1CCC(CNc2nccc(Nc3ncc(C(=O)Nc4c(C)cccc4C)s3)n2)C1 (racemic)", "Measured result": "−12.2"}

Tested on LRRK2 (Homo sapiens (Human)): C=CC(=O)N1CC[C@@H](Nc2nccc(Nc3ncc(C(=O)Nc4c(C)cccc4C)s3)n2)C1 . Observed % change of MS signal compared to control sample: −5.7

Tested on LRRK2 (Homo sapiens (Human)): C=CC(=O)N1CCC(Cn2ccc(Nc3ncc(C(=O)Nc4c(C)cccc4Cl)s3)n2)C1 (stereo not shown) . Observed % change of MS signal compared to control sample: −20.9

Tested on LRRK2 (Homo sapiens (Human)): C=CC(=O)N1CCCCC(Nc2nccc(Nc3ncc(C(=O)Nc4c(C)cccc4C)s3)n2)C1 (stereo not shown) . Observed % change of MS signal compared to control sample: −9.6

* * *

Item-by-item account of % change of MS signal compared to control sample
- Study target: CLK3 (Homo sapiens (Human), UniProt P49761)
- Sequence (P49761 whole entry): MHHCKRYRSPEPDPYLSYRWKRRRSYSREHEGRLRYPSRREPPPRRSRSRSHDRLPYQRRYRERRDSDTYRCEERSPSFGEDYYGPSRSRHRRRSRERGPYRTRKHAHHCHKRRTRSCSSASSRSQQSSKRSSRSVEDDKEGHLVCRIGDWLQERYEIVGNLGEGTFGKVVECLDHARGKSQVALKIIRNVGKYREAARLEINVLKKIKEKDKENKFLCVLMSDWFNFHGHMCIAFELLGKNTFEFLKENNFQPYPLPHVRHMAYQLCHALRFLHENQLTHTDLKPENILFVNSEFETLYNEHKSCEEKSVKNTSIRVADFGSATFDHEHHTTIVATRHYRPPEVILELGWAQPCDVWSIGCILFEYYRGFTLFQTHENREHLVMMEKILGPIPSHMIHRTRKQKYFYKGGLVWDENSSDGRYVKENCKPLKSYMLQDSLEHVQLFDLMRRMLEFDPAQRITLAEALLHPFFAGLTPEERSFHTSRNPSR
- Test details: KINATIV assay
- Assay type: cell-based
- Condition summary: 1 μM, 90 minutes, BCWM.1 cells
- Procedure: The cells were harvested and lysed. The lysates were directly labeled with an ATP-biotin probe. Bound kinases were identified and quantitated by ACTIVX as described in Patricelli et al., Biochemistry, 2007, 46(2): 350-358. The compounds were tested in duplicates against duplicate or quadruplicate control samples.
All answers are understood in %, so give the number only.

{"Compound": "C=CC(=O)N1CC[C@@H](Nc2nccc(Nc3ncc(C(=O)Nc4c(C)cccc4C)s3)n2)C1", "Measured result": "−1.3"}
{"Compound": "C=CC(=O)N1CCCCC(Nc2nccc(Nc3ncc(C(=O)Nc4c(C)cccc4C)s3)n2)C1 (stereo not shown)", "Measured result": "−15.7"}
{"Compound": "C=CC(=O)N1CCC(Cn2ccc(Nc3ncc(C(=O)Nc4c(C)cccc4Cl)s3)n2)C1 (stereo not shown)", "Measured result": "−22.6"}

Turning now to a further compound:
The compound C=CC(=O)N1CCC(CNc2nccc(Nc3ncc(C(=O)Nc4c(C)cccc4C)s3)n2)C1 (racemic) showed % change of MS signal compared to control sample equal to −14.9

* * *

Item-by-item account of % change of MS signal compared to control sample
- Study target: TAK1 (Homo sapiens (Human), UniProt O43318)
- Sequence (O43318 whole entry): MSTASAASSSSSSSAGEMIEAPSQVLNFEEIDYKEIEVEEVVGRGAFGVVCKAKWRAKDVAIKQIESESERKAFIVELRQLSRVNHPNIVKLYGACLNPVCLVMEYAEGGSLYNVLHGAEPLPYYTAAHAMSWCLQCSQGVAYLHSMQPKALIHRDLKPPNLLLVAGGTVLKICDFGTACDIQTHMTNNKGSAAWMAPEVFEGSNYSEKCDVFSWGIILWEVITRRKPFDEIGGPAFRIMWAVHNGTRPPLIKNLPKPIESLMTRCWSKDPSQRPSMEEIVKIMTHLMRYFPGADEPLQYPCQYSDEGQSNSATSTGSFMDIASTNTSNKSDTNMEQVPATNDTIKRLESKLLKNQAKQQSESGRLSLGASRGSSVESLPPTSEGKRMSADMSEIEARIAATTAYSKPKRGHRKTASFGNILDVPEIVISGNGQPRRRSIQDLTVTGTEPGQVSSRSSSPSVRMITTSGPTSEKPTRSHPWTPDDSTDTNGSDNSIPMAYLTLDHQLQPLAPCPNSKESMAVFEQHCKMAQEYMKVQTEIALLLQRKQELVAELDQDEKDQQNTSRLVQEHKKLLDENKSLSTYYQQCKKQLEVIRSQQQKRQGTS
- Test details: KINATIV assay
- Type: cell-based
- Condition summary: 1 μM, 90 minutes, BCWM.1 cells
All answers are understood in %, so give the number only.

Observe how each entry below is paired with its result.
{"Compound": "C=CC(=O)N1CCC(Cn2ccc(Nc3ncc(C(=O)Nc4c(C)cccc4Cl)s3)n2)C1 (stereo not shown) [II-1]", "Measured result": 25.6}
{"Compound": "C=CC(=O)N1CC[C@@H](Nc2nccc(Nc3ncc(C(=O)Nc4c(C)cccc4C)s3)n2)C1 [Example I-4]", "Measured result": 27.8}
{"Compound": "C=CC(=O)N1CCC(CNc2nccc(Nc3ncc(C(=O)Nc4c(C)cccc4C)s3)n2)C1 (racemic) [Example I-8]", "Measured result": 9.7}

The compound C=CC(=O)N1CCCCC(Nc2nccc(Nc3ncc(C(=O)Nc4c(C)cccc4C)s3)n2)C1 (stereo not shown) [Example I-7] showed % change of MS signal compared to control sample equal to 14.5
